Source listed as paper PMC9102668.

tested on: SKOV3cis; assay: MTT assay (CellTiter96), cytotoxic activity; format: cell-based; conditions: Cisplatin resistant SKOV3, MTT assay, 48 h incubation
observed_property: pIC50
Answers are plain numbers, as −log10 of the molar value.

Before answering, review these 4 worked examples.
>  <smiles_input>
CSC(=S)C=C([O][Ru][Cl])c1cccc(O)c1.Cc1ccc(C(C)C)cc1

>  <tgt>
SKOV3cis

>  <observed_property>
pIC50

>  <quantitative_result>
4.92

$$$$
>  <smiles_input>
CCSC(=S)C=C([O][Ru][Cl])c1cccc(O)c1.Cc1ccc(C(C)C)cc1

>  <tgt>
SKOV3cis

>  <observed_property>
pIC50

>  <quantitative_result>
5.03

$$$$
>  <smiles_input>
CSC(=S)C=C([O][Ru][Cl])c1ccc(O)cc1.Cc1ccc(C(C)C)cc1

>  <tgt>
SKOV3cis

>  <observed_property>
pIC50

>  <quantitative_result>
4.55

$$$$
>  <smiles_input>
CCSC(=S)C=C([O][Ru][Cl])c1ccccc1.Cc1ccc(C(C)C)cc1

>  <tgt>
SKOV3cis

>  <observed_property>
pIC50

>  <quantitative_result>
4.95

$$$$

// next entry
Field pIC50 (entry "CCSC(=S)C=C([O][Ru][Cl])c1ccc(O)cc1.Cc1ccc(C(C)C)cc1" ) reads 4.65

* * *

I'd be grateful if you could share measured IC50 for these entries.
system: A549; experiment: MTT assay (CellTiter96), cytotoxic activity; assay type: cell-based; conditions: lung carcinoma cell line, 48 h incubation
One number for each entry, in µM.

Working through the 5 compounds below one at a time, give IC50 for each.
1. CCSC(=S)C=C([O][Ru][Cl])c1ccccc1.Cc1ccc(C(C)C)cc1
2. CCSC(=S)C=C([O][Ru][Cl])c1ccc(O)cc1.Cc1ccc(C(C)C)cc1
3. CSC(=S)C=C([O][Ru][Cl])c1ccc(O)cc1.Cc1ccc(C(C)C)cc1
4. CCSC(=S)C=C([O][Ru][Cl])c1cccc(O)c1.Cc1ccc(C(C)C)cc1
5. CSC(=S)C=C([O][Ru][Cl])c1cccc(O)c1.Cc1ccc(C(C)C)cc1

Response:
[12.2, 48.5, 26.3, 11.5, 8]
